METHOD: Pharmacokinetic study in male SD rats
Format: in vivo
MEASUREMENT_PARAMETERS: rat, PO 5 mg/kg
ENDPOINT_NAME: AUCinf

> print(dat)
                           substance.smiles   test.result
1  O=C1CC[C@H](N2Cc3cc(N4CCN(CC5CCN(c6ccc([C@@H]7c8ccc(O)cc8CC[C@@H]7c7ccccc7)cc6)CC5)CC4)ccc3C2=O)C(=O)N1  1150 ng·h/mL

====

METHOD: Pharmacokinetic study in male ICR mice
Assay type: in vivo
MEASUREMENT_PARAMETERS: male, ICR, plasma; mouse, PO 5 mg/kg
ENDPOINT_NAME: Cmax (ng/mL)

> print(dat)
                           substance.smiles  endpoint.name  unit.tag  test.result
1  O=C1CC[C@H](N2Cc3cc(N4CCN(CC5CCN(c6ccc([C@@H]7c8ccc(O)cc8CC[C@@H]7c7ccccc7)cc6)CC5)CC4)ccc3C2=O)C(=O)N1           Cmax     ng/mL          393

====

METHOD: Pharmacokinetic study in male ICR mice
Type: in vivo
MEASUREMENT_PARAMETERS: male, ICR, plasma; mouse, IV 2 mg/kg
ENDPOINT_NAME: half-life (h)

> print(dat)
                           substance.smiles  test.result
1  O=C1CC[C@H](N2Cc3cc(N4CCN(CC5CCN(c6ccc([C@@H]7c8ccc(O)cc8CC[C@@H]7c7ccccc7)cc6)CC5)CC4)ccc3C2=O)C(=O)N1         3.79

====

METHOD: pH stability in buffer solutions (pH 2-10) and PBS pH 7.4
Type: physicochemical
MEASUREMENT_PARAMETERS: pH 2 buffer solution; pH 2, 37 °C
Description: The physicochemical stability of vepdegestrant was determined using various pH buffers (pH 2.0–10.0) and plasma and microsomes. A solution of vepdegestrant in methanol (10 µL) was added to buffer solutions at pH 2, 4, 6, 8, and 10 or pH 7.4 PBS (490 µL), yielding a final concentration of 0.1 µg/mL, and incubated at 37 °C, with 100 rpm in a water bath. […]
ENDPOINT_NAME: half-life at 0.1 µg/mL (h)

> print(dat)
                           substance.smiles  test.result
1  O=C1CC[C@H](N2Cc3cc(N4CCN(CC5CCN(c6ccc([C@@H]7c8ccc(O)cc8CC[C@@H]7c7ccccc7)cc6)CC5)CC4)ccc3C2=O)C(=O)N1         7.35

====

METHOD: Metabolic stability in rat liver microsomes
Format: in vitro ADME
MEASUREMENT_PARAMETERS: Sprague-Dawley, liver microsomes, pH 7.4; rat microsomes, 1 μM
ENDPOINT_NAME: half-life at 1 µM (min)

> print(dat)
                           substance.smiles  test.result
1  O=C1CC[C@H](N2Cc3cc(N4CCN(CC5CCN(c6ccc([C@@H]7c8ccc(O)cc8CC[C@@H]7c7ccccc7)cc6)CC5)CC4)ccc3C2=O)C(=O)N1         36.9

====

METHOD: pH stability in buffer solutions (pH 2-10) and PBS pH 7.4
Format: physicochemical
MEASUREMENT_PARAMETERS: pH 8 buffer solution; pH 8, 37 °C

MOLECULE	UNIT_TAG	half-life at 0.1 µg/mL
O=C1CC[C@H](N2Cc3cc(N4CCN(CC5CCN(c6ccc([C@@H]7c8ccc(O)cc8CC[C@@H]7c7ccccc7)cc6)CC5)CC4)ccc3C2=O)C(=O)N1 [vepdegestrant, Vepdegestrant]	min	22.8

====

METHOD: Pharmacokinetic study in male SD rats
Assay type: in vivo
MEASUREMENT_PARAMETERS: rat, PO 5 mg/kg
ENDPOINT_NAME: AUClast

> print(dat)
                           substance.smiles   test.result
1  O=C1CC[C@H](N2Cc3cc(N4CCN(CC5CCN(c6ccc([C@@H]7c8ccc(O)cc8CC[C@@H]7c7ccccc7)cc6)CC5)CC4)ccc3C2=O)C(=O)N1  1120 ng·h/mL

====

METHOD: Pharmacokinetic study in male SD rats
Type: in vivo
MEASUREMENT_PARAMETERS: male, Sprague-Dawley, plasma; rat, IV 2 mg/kg
ENDPOINT_NAME: Tmax (min)

MOLECULE	TEST_RESULT
O=C1CC[C@H](N2Cc3cc(N4CCN(CC5CCN(c6ccc([C@@H]7c8ccc(O)cc8CC[C@@H]7c7ccccc7)cc6)CC5)CC4)ccc3C2=O)C(=O)N1 [vepdegestrant, Vepdegestrant]	4.98

====

METHOD: Pharmacokinetic study in male ICR mice
Assay type: in vivo
MEASUREMENT_PARAMETERS: male, ICR, plasma; mouse, IV 2 mg/kg
ENDPOINT_NAME: Cmax (ng/mL)

> print(dat)
                           substance.smiles  test.result
1  O=C1CC[C@H](N2Cc3cc(N4CCN(CC5CCN(c6ccc([C@@H]7c8ccc(O)cc8CC[C@@H]7c7ccccc7)cc6)CC5)CC4)ccc3C2=O)C(=O)N1         2180

====

METHOD: Plasma protein binding (PPB) using a rapid equilibrium dialysis device
Assay type: in vitro ADME
MEASUREMENT_PARAMETERS: plasma in a rapid equilibrium dialysis device; after 4-h incubation in rapid equilibrium dialysis device; read-out: recovery of vepdegestrant in the plasma
ENDPOINT_NAME: recovery at 4 h

> print(dat)
                           substance.smiles  test.result
1  O=C1CC[C@H](N2Cc3cc(N4CCN(CC5CCN(c6ccc([C@@H]7c8ccc(O)cc8CC[C@@H]7c7ccccc7)cc6)CC5)CC4)ccc3C2=O)C(=O)N1        > 85%

====

METHOD: pH stability in buffer solutions (pH 2-10) and PBS pH 7.4
Assay type: physicochemical
MEASUREMENT_PARAMETERS: pH 6 buffer solution; pH 6, 37 °C
ENDPOINT_NAME: half-life at 0.1 µg/mL (min)

> print(dat)
                           substance.smiles           endpoint.name  unit.tag  test.result
1  O=C1CC[C@H](N2Cc3cc(N4CCN(CC5CCN(c6ccc([C@@H]7c8ccc(O)cc8CC[C@@H]7c7ccccc7)cc6)CC5)CC4)ccc3C2=O)C(=O)N1  half-life at 0.1 µg/mL       min           24

====

METHOD: Pharmacokinetic study in male SD rats
Format: in vivo
MEASUREMENT_PARAMETERS: male, Sprague-Dawley, plasma; rat, PO 5 mg/kg vs IV 2 mg/kg; read-out: BA (oral bioavailability)
ENDPOINT_NAME: bioavailability (%)

> print(dat)
                           substance.smiles    endpoint.name  test.result
1  O=C1CC[C@H](N2Cc3cc(N4CCN(CC5CCN(c6ccc([C@@H]7c8ccc(O)cc8CC[C@@H]7c7ccccc7)cc6)CC5)CC4)ccc3C2=O)C(=O)N1  bioavailability         24.1

====

METHOD: Pharmacokinetic study in male SD rats
Assay type: in vivo
MEASUREMENT_PARAMETERS: male, Sprague-Dawley, rat, plasma, intravenous, 2 mg/kg, read-out: volume of distribution
ENDPOINT_NAME: Vd

> print(dat)
                           substance.smiles  endpoint.name  test.result
1  O=C1CC[C@H](N2Cc3cc(N4CCN(CC5CCN(c6ccc([C@@H]7c8ccc(O)cc8CC[C@@H]7c7ccccc7)cc6)CC5)CC4)ccc3C2=O)C(=O)N1             Vd     > 1 L/kg

====

METHOD: Pharmacokinetic study in male SD rats
Format: in vivo
MEASUREMENT_PARAMETERS: male, Sprague-Dawley, rat, plasma, iv, 2 mg/kg, IV 2 mg/kg, read-out: Vss
ENDPOINT_NAME: Vd (L/kg)

> print(dat)
                           substance.smiles  endpoint.name  test.result
1  O=C1CC[C@H](N2Cc3cc(N4CCN(CC5CCN(c6ccc([C@@H]7c8ccc(O)cc8CC[C@@H]7c7ccccc7)cc6)CC5)CC4)ccc3C2=O)C(=O)N1             Vd         4.43

====

METHOD: Pharmacokinetic study in male SD rats
Format: in vivo
MEASUREMENT_PARAMETERS: rat, IV 2 mg/kg

MOLECULE	AUCinf (µg·h/mL)
O=C1CC[C@H](N2Cc3cc(N4CCN(CC5CCN(c6ccc([C@@H]7c8ccc(O)cc8CC[C@@H]7c7ccccc7)cc6)CC5)CC4)ccc3C2=O)C(=O)N1 [vepdegestrant, Vepdegestrant]	1.9

====

METHOD: Pharmacokinetic study in male SD rats
Assay type: in vivo
MEASUREMENT_PARAMETERS: male, Sprague-Dawley, plasma; rat, IV 2 mg/kg
ENDPOINT_NAME: Cmax (ng/mL)

> print(dat)
                           substance.smiles  endpoint.name  unit.tag  test.result
1  O=C1CC[C@H](N2Cc3cc(N4CCN(CC5CCN(c6ccc([C@@H]7c8ccc(O)cc8CC[C@@H]7c7ccccc7)cc6)CC5)CC4)ccc3C2=O)C(=O)N1           Cmax     ng/mL          850
